study-target: TRPC5 channel (Homo sapiens)
Construct: expressed in transfected cells; host or cells: HEK293/TREx (Invitrogen), tetracycline-induced
Sequence (Q9UL62 whole entry): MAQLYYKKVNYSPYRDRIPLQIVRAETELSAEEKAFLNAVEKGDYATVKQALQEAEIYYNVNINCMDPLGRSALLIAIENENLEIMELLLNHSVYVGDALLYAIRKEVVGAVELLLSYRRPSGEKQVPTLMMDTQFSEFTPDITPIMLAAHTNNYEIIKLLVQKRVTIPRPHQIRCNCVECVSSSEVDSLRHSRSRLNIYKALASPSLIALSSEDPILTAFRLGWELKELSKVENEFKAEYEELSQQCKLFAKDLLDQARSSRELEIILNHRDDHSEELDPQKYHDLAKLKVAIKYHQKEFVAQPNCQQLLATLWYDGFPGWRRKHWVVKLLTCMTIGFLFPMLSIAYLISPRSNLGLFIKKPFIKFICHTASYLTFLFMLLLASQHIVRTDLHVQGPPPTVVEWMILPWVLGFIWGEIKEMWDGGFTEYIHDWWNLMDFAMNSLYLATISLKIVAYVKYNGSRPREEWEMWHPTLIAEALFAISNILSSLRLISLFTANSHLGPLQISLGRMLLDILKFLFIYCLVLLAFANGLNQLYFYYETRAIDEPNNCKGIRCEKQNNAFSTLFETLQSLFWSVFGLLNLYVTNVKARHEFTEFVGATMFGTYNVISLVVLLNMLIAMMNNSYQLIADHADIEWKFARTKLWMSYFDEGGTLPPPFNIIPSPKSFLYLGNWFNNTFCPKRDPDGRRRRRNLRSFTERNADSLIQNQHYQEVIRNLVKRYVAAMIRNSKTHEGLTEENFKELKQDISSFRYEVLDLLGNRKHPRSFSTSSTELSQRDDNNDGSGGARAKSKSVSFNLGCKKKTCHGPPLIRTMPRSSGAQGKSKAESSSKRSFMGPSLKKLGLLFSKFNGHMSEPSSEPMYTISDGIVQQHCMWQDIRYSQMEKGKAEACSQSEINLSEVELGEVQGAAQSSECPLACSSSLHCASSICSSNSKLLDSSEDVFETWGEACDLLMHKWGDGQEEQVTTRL
protocol-details: High throughput screening assay: Fluo4 cell-based fluorescence assay of intracellular Ca2+ rise
run-parameters: HEK293/TREx cells inducibly expressing TRPC5, 0.027-20 μM in triplicate, NF = no IC50 curve could be fit
measure: IC50 (nM)

mol_smiles=CC(C)c1ccccc1Oc1cnc2c(c1Cc1ccc(F)cc1)c(=O)n(CCCO)c(=O)n2C obs_value=33.8

1. Cn1c(=O)n(CCCO)c(=O)c2c(Cc3ccc(Cl)cc3)c(Oc3cccnc3)cnc21
2. CC(C)c1cccc(Oc2cnc3c(c2Cc2ccccc2)c(=O)n(CCCO)c(=O)n3C)c1
3. Cn1c(=O)n(CCCO)c(=O)c2c(Cc3ccc(C(F)(F)F)nc3)c(Oc3cccc(C(F)(F)F)c3)cnc21
Sort (3 compounds) by IC50: min first. List the labels in the requested order.
2, 3, 1
